Numbers sourced from paper PMC8330742.

assay_endpoint: melting point

Given the entry N#CC1C(=O)NC(c2cccc([N+](=O)[O-])c2)c2sc3c(F)cccc3c21 (stereo not drawn) , report its measured melting point. 180 to 182 °C

So what does the record say about melting point for N#CC1=C(N2CCCCC2)NC(c2cccc([N+](=O)[O-])c2)c2sc3c(F)cccc3c21 (stereo not drawn) ? 280 to 282 °C

# lookup: melting point of "COc1ccc(C=C2Sc3c(F)cccc3C2=O)c(OC)c1" 195 to 197 °C

I have this compound here, N#CC1=C(Cl)NC(c2cccc([N+](=O)[O-])c2)c2sc3c(F)cccc3c21 (stereo not drawn) , and I need its recorded melting point. 140 to 142 °C

What does the record list as melting point for O=C1NC(c2cccc([N+](=O)[O-])c2)c2sc3c(F)cccc3c2C1N1CCOCC1 (stereo not drawn) ? 250 to 251 °C

Give the measured melting point of COc1ccc(C2NC(=O)C(Cl)c3c2sc2c(F)cccc32)cc1 (stereo not drawn) . 154 to 156 °C

Look at this compound and give its reported melting point. O=C1NC(c2ccccc2[N+](=O)[O-])c2sc3c(F)cccc3c2C1Cl (stereo not drawn) 110 to 112 °C

# melting point lookup, item CCN1CCN(C2C(=O)NC(c3cccc([N+](=O)[O-])c3)c3sc4c(F)cccc4c32)CC1 (stereo not drawn) 240 to 241 °C

If you can, please state the reported melting point value of O=[N+]([O-])c1cccc(C2NC3=C(Nc4ccccc4N3)c3c2sc2c(F)cccc32)c1 (stereo not drawn) . 160 to 162 °C

What melting point value was documented for this compound, O=[N+]([O-])c1cccc(C2NC(N3CCCCC3)=C(Cl)c3c2sc2c(F)cccc32)c1 (stereo not drawn) ? 241 to 243 °C

Which melting point value is on record for COc1ccc(C2NC(=O)C(Cl)c3c2sc2c(F)cccc32)c(OC)c1 (stereo not drawn) ? 120 to 122 °C

Dear colleague, I am looking for the recorded melting point of the following compound: O=[N+]([O-])c1cccc(C2NC(N3CCOCC3)=C(Cl)c3c2sc2c(F)cccc32)c1 (stereo not drawn) 175 to 177 °C

Bench note: what melting point did COc1ccc(C2NC(=O)C(C#N)c3c2sc2c(F)cccc32)cc1 (stereo not drawn) show? 103 to 105 °C

# lookup: melting point of "O=C1C(=Cc2cccc([N+](=O)[O-])c2)Sc2c(F)cccc21" 200 to 202 °C

So what does the record say about melting point for O=C1NC(c2cccc([N+](=O)[O-])c2)c2sc3c(F)cccc3c2C1Cl (stereo not drawn) ? 160 to 162 °C

State the recorded melting point for this entry: O=[N+]([O-])c1cccc(C2NC(Cl)=C(Cl)c3c2sc2c(F)cccc32)c1 (stereo not drawn) 120 to 122 °C

Consider the compound COc1ccc(C2NC(=O)C(C#N)c3c2sc2c(F)cccc32)c(OC)c1 (stereo not drawn) and give its measured melting point. 100 to 102 °C

Given the compound "O=C1C(=Cc2ccccc2[N+](=O)[O-])Sc2c(F)cccc21" , what is its reported melting point? 170 to 172 °C

----------
test system: HOP-92; test: NCI-60 SRB screen; type: cell-based, human; settings: Homo sapiens; single dose 10^−5 M; HOP-92, Non-small cell lung carcinoma; read-out: Growth inhibition (%)
Label False if inhibition at 10 µM falls below 10%; label True in every other case.

Quick check, inhibition at 10 µM >= 10%? CCN1CCN(C2=C(Cl)c3c(sc4c(F)cccc34)C(c3cccc([N+](=O)[O-])c3)N2)CC1 (stereo not drawn) True

Hi, just wondering whether N#CC1=C(N2CCCCC2)NC(c2cccc([N+](=O)[O-])c2)c2sc3c(F)cccc3c21 (stereo not drawn) shows inhibition at 10 µM of 10% or higher. False

inhibition at 10 µM >= 10% for N#CC1=C(N2CCOCC2)NC(c2cccc([N+](=O)[O-])c2)c2sc3c(F)cccc3c21 (stereo not drawn) ? True

Reported inhibition at 10 µM reaches at least 10% for N#CC1=C(Nc2ccccc2F)NC(c2cccc([N+](=O)[O-])c2)c2sc3c(F)cccc3c21 (stereo not drawn) ? False

Say whether O=[N+]([O-])c1cccc(C2NC3=C(Nc4ccccc4N3)c3c2sc2c(F)cccc32)c1 (stereo not drawn) shows inhibition at 10 µM of 10% or more. False

Threshold query (inhibition at 10 µM >= 10%) on O=[N+]([O-])c1cccc(C2NC(N3CCCCC3)=C(Cl)c3c2sc2c(F)cccc32)c1 (stereo not drawn) False

Say whether CCN1CCN(C2=C(C#N)c3c(sc4c(F)cccc34)C(c3cccc([N+](=O)[O-])c3)N2)CC1 (stereo not drawn) shows inhibition at 10 µM of 10% or more. True

Does N#CC1=C(Cl)NC(c2cccc([N+](=O)[O-])c2)c2sc3c(F)cccc3c21 (stereo not drawn) have a reported inhibition at 10 µM of at least 10%? True

Hello, I need to know if O=[N+]([O-])c1cccc(C2NC(N3CCOCC3)=C(Cl)c3c2sc2c(F)cccc32)c1 (stereo not drawn) has measured inhibition at 10 µM not below 10%. Thanks! True

----------
Would you mind telling me the reported inhibition at 10 µM of each entry?
test system: OVCAR-4; test: NCI-60 SRB screen; assay type: cell-based, human; details: Homo sapiens; single dose 10^−5 M; OVCAR-4, Ovarian cancer; read-out: Growth inhibition (%)
Give just the number in %; leave the unit off.

Can you look up the measured inhibition at 10 µM of N#CC1=C(Cl)NC(c2cccc([N+](=O)[O-])c2)c2sc3c(F)cccc3c21 (stereo not drawn) for me? -3.81

Which inhibition at 10 µM is listed for N#CC1=C(N2CCOCC2)NC(c2cccc([N+](=O)[O-])c2)c2sc3c(F)cccc3c21 (stereo not drawn) ? -2.02

Need inhibition at 10 µM, item O=[N+]([O-])c1cccc(C2NC3=C(Nc4ccccc4N3)c3c2sc2c(F)cccc32)c1 (stereo not drawn) -2.74

What value of measured inhibition at 10 µM is listed for N#CC1=C(N2CCCCC2)NC(c2cccc([N+](=O)[O-])c2)c2sc3c(F)cccc3c21 (stereo not drawn) ? 0.9

Would you kindly share the measured inhibition at 10 µM for N#CC1=C(Nc2ccccc2F)NC(c2cccc([N+](=O)[O-])c2)c2sc3c(F)cccc3c21 (stereo not drawn) ? -3.9

So what's the measured inhibition at 10 µM for this one? CCN1CCN(C2=C(C#N)c3c(sc4c(F)cccc34)C(c3cccc([N+](=O)[O-])c3)N2)CC1 (stereo not drawn) -0.52

What inhibition at 10 µM value was documented for this molecule, O=[N+]([O-])c1cccc(C2NC(N3CCCCC3)=C(Cl)c3c2sc2c(F)cccc32)c1 (stereo not drawn) ? 12.3

Give the measured inhibition at 10 µM of CCN1CCN(C2=C(Cl)c3c(sc4c(F)cccc34)C(c3cccc([N+](=O)[O-])c3)N2)CC1 (stereo not drawn) . 3.25

Given the molecule O=[N+]([O-])c1cccc(C2NC(N3CCOCC3)=C(Cl)c3c2sc2c(F)cccc32)c1 (stereo not drawn) , what is its reported inhibition at 10 µM? 13.5

----------
Provide the reported inhibition at 10 µM of each item.
test system: HOP-62; assay: NCI-60 SRB screen; format: cell-based, human; settings: Homo sapiens; single dose 10^−5 M; HOP-62, Non-small cell lung carcinoma; read-out: Growth inhibition (%)
Value expressed in %; do not type the unit.

Entry N#CC1=C(N2CCOCC2)NC(c2cccc([N+](=O)[O-])c2)c2sc3c(F)cccc3c21 (stereo not drawn) : reported inhibition at 10 µM = ? 18

For the compound shown here, CCN1CCN(C2=C(C#N)c3c(sc4c(F)cccc34)C(c3cccc([N+](=O)[O-])c3)N2)CC1 (stereo not drawn) , give the reported inhibition at 10 µM. 16.1

Give its inhibition at 10 µM value. Item: N#CC1=C(Nc2ccccc2F)NC(c2cccc([N+](=O)[O-])c2)c2sc3c(F)cccc3c21 (stereo not drawn) 8.27

Requested read-out: inhibition at 10 µM. Entry: O=[N+]([O-])c1cccc(C2NC(N3CCCCC3)=C(Cl)c3c2sc2c(F)cccc32)c1 (stereo not drawn) 5.22

Value lookup for inhibition at 10 µM; key = N#CC1=C(N2CCCCC2)NC(c2cccc([N+](=O)[O-])c2)c2sc3c(F)cccc3c21 (stereo not drawn) 10.2

Query: inhibition at 10 µM; subject: O=[N+]([O-])c1cccc(C2NC(N3CCOCC3)=C(Cl)c3c2sc2c(F)cccc32)c1 (stereo not drawn) 16.1

Would you mind telling me what inhibition at 10 µM value was observed for N#CC1=C(Cl)NC(c2cccc([N+](=O)[O-])c2)c2sc3c(F)cccc3c21 (stereo not drawn) ? 9.67

# lookup: inhibition at 10 µM of CCN1CCN(C2=C(Cl)c3c(sc4c(F)cccc34)C(c3cccc([N+](=O)[O-])c3)N2)CC1 (stereo not drawn) 3.76

What value of inhibition at 10 µM has been reported for the following compound? O=[N+]([O-])c1cccc(C2NC3=C(Nc4ccccc4N3)c3c2sc2c(F)cccc32)c1 (stereo not drawn) 9.45
